Origin of values: patent US11419858B2

Tested on: WT (C57BL/6J) mice
protocolNotes: Acute safety/toxicity, single dose
Assay type: in vivo
experimentalSetup: GJ103 25 mg/kg i.p., one dose, a week later
Experimental: Both acute (a single dose of GJ103 administration) and chronic (4 weekly doses of GJ103 administration) in vivo toxicity studies were performed. Acute Safety/Toxicity. The acute safety/toxicity of GJ103 study involved 3-month old WT (C57BL/6J) mice (N=30). Mice were administered GJ103 intraperitoneally (i.p.) at doses of 10, 25, 50 or 250 mg/kg (N=5 per group) and sacrificed 1 week later. Untreated or vehicle treated mice served as controls. […]
outcomeMeasure: ALP (U/L)
Answer format: numeric, U/L implied, no suffix.

Request: // map COc1cccc(-n2c(SCC(=O)O)nnc2-c2ccccn2)c1 [GJ103] to recorded ALP (system: WT (C57BL/6J) mice)
Result: 42
